B1: TPR 5TU (parent)
chain: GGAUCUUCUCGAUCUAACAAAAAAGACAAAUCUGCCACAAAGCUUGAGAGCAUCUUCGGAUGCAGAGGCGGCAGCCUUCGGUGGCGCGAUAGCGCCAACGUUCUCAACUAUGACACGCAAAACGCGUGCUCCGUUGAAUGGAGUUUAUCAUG

- Variants of: B1
- TEST_NAME: polymerase ribozyme fitness, log enrichment relative to wild type (log ratio); higher = more active; in vitro selection for triplet polymerase activity
This sample holds only a part of the variants without activity.
Kind request: treat -3 as inclusive, so polymerase ribozyme fitness (log ratio) at -3 or higher is MET, anything lower is NOT MET.

# check: polymerase ribozyme fitness (log ratio) of A41C C114U U127C is greater than or equal to -3
NOT MET

What do we get for A20C A30G G50U C95G A147G ?
NOT MET

What about this variant? C27G C54A C93A A115U
NOT MET

Please do the same for C38U G58A U61A U134C as well.
MET

Can you handle G70A G74C C125G U144G next?
NOT MET

Same question, A24U A73U A119G A121U C132A this time
NOT MET

Next up: G48U A106G
MET

Next record, please: A52G G71U
MET

Try this variant next: A22U C87U G141U
MET

Can you check A97G U102A C129A next?
NOT MET

Check U4A A28U C93U A97U C105G G126A G136U too.
NOT MET

// query: U13C U104G
MET

Repeat for the following variant: G68C C99G A106G C129U
NOT MET

Next variant up: A3G G94U C103U U127C U134C G136A
NOT MET

Okay, and A30G C76U ?
NOT MET

Repeat with A20G C51U
MET

Please do the same for U9C A22U U53G C79U as well.
NOT MET

Could you do the same for A24G C54U C95U A97C A119U C125U , please?
NOT MET

A30G C87U A110U C131A G136U G141U ?
NOT MET

Try the variant A21U A29U U61A
NOT MET

Another variant to look at: A26U C35G C69A G92A C96A A97G A120C
NOT MET
